All values here come from patent US9732075B2.

assayed.system: human orexin-1 receptor (Homo sapiens (Human), UniProt O43613)
Sequence (O43613 whole entry): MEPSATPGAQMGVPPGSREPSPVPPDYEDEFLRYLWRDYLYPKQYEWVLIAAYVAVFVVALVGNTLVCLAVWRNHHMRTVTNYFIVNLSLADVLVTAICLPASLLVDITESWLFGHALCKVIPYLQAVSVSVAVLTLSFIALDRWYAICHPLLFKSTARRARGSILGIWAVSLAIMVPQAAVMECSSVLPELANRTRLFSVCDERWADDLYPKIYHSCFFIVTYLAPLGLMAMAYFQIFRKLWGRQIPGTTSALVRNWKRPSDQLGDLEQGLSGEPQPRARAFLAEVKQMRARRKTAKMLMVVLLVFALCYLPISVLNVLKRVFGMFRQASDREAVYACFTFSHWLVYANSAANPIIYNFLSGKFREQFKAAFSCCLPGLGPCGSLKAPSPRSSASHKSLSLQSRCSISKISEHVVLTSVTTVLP
procedure.details: In vitro assay: intracellular calcium measurements (FLIPR), antagonistic activity
setup.conditions: CHO cells expressing human orexin-1 receptor, orexin-A agonist, geometric mean, read-out: IC50 Ox1
quantity.name: IC50 (nM)

Example compounds with recorded IC50:
compound: Cc1ccc(-c2ccc(C(F)(F)F)cc2)c(C(=O)N2CCC[C@@]2(C)c2nc3cc(C(F)(F)F)ccc3[nH]2)c1
measure.unit: nM
IC50: 339
//
compound: C=C1C[C@@H](c2nc3cc(OC)ccc3[nH]2)N(C(=O)c2cc(F)ccc2-n2nccn2)C1
measure.unit: nM
IC50: 1530
//
compound: Cc1nc(C(=O)N2CCCC2c2nc3c(C)cccc3[nH]2)c(-c2ccccc2)s1 (centres unmarked)
measure.unit: nM
IC50: 147
//
compound: Cc1ccc(-n2nccn2)c(C(=O)N2CCC[C@@]2(C)c2nc3cc(Br)cc(C)c3[nH]2)c1
measure.unit: nM
IC50: 9
//
compound: Cc1ccc(-c2ncccn2)c(C(=O)N2CCC[C@@]2(C)c2nc3cc(Br)cc(C)c3[nH]2)c1
measure.unit: nM
IC50: 6
//
compound: COc1cc2nc([C@]3(C)CCCN3C(=O)c3ccccc3-c3ccc(C)cc3)[nH]c2cc1OC
measure.unit: nM
IC50: 192
//
compound: C=C1CN(C(=O)c2cc(C)c(C)cc2-n2nccn2)C(C)(c2nc3cc(OC)ccc3[nH]2)C1 (centres unmarked)
measure.unit: nM
IC50: 11
//
compound: C=C1C[C@@H](c2nc3cc(Cl)c(C(F)(F)F)cc3[nH]2)N(C(=O)c2cc(C(F)(F)F)ccc2-n2nccn2)C1
measure.unit: nM
IC50: 67
//
compound: Cc1ccc(-c2ccccc2F)c(C(=O)N2CCC[C@@]2(C)c2nc3cc(C)c(C)cc3n2CC2CC2)c1
measure.unit: nM
IC50: 66
//
compound: Cc1cc2nc([C@]3(C)CCCN3C(=O)c3cc(Cl)ccc3-n3nccn3)[nH]c2cc1C
measure.unit: nM
IC50: 24

I: Cc1nc(C(=O)N2CC[C@H](C)[C@H]2c2nc3cc(Cl)c(C)cc3[nH]2)c(-c2cccc(Cl)c2)s1
II: Cc1ccc(-n2cccn2)c(C(=O)N2CC[C@H](C)[C@H]2c2nc3c(C)c(Cl)ccc3[nH]2)c1
Query block: Larger number for IC50: I , or II ? Let me know the label of the one you choose.
Result block: II

----------
assayed.system: human orexin-2 receptor (Homo sapiens (Human), UniProt O43614)
Sequence (O43614 whole entry): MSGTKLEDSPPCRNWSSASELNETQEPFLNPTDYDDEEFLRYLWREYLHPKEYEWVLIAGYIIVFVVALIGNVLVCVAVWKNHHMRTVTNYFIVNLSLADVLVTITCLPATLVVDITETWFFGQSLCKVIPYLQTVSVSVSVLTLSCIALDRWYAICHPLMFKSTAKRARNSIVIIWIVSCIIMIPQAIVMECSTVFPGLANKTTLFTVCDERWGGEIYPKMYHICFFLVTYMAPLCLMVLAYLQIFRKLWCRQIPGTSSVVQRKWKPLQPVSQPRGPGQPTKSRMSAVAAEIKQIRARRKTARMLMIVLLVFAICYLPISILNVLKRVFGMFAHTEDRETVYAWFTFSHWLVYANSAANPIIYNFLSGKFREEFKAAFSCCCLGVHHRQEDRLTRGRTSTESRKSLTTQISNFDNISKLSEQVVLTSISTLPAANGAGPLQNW
procedure.details: In vitro assay: intracellular calcium measurements (FLIPR), antagonistic activity
setup.conditions: CHO cells expressing human orexin-2 receptor, orexin-A agonist, geometric mean, read-out: IC50 Ox2
Experimental: In Vitro Assay: Intracellular Calcium Measurements: […] Within the Fluorescent Imaging Plate Reader (FLIPR Tetra, Molecular Devices), antagonists are added to the plate in a volume of 10 μl/well, incubated for 120 min and finally 10 μl/well of agonist is added. […] The calculated IC50 values may fluctuate depending on the daily cellular assay performance. […]
pIC50: −log10 of the molar value.
quantity.name: pIC50

// solved cases for pIC50 follow
compound: C=C1C[C@@H](c2nc3cc(Cl)c(C(F)(F)F)cc3[nH]2)N(C(=O)c2c(-n3nccn3)ccc(OC)c2F)C1 [Ex. 6.179]
assayed.system: human orexin-2 receptor (Homo sapiens (Human), UniProt O43614)
quantity.name: pIC50
obs.value: 8.15

compound: COc1ccc2nc([C@@H]3[C@@H](C)CCN3C(=O)c3nc(C)sc3-c3cccc(Cl)c3)[nH]c2c1 [Ex. 4.26]
assayed.system: human orexin-2 receptor (Homo sapiens (Human), UniProt O43614)
quantity.name: pIC50
obs.value: 5.64

compound: Cc1ccc(-n2cccn2)c(C(=O)N2CCC[C@@]2(C)c2nc3cc(C(F)(F)F)c(Cl)cc3[nH]2)n1 [Ex. 5.143]
assayed.system: human orexin-2 receptor (Homo sapiens (Human), UniProt O43614)
quantity.name: pIC50
obs.value: 7.09

P: C=C1C[C@@H](c2nc3cc(OC)ccc3[nH]2)N(C(=O)c2nccnc2-c2ccc(C)cc2)C1 [Ex. 6.4]
Q: CCOc1ccc(-c2ccc(C)cc2C(=O)N2CCC[C@@]2(C)c2nc3cc(C(F)(F)F)c(Cl)cc3[nH]2)cc1 [Ex. 5.162]
R: COc1cc(C(=O)N2C[C@H](OC)CC2(C)c2nc3c(C)c(Cl)ccc3[nH]2)c(-n2nccn2)cc1OC (stereo partly shown) [Ex. 3.52]
S: COc1ccc2[nH]c(C3CCCN3C(=O)c3cc(C)ccc3-n3nccn3)nc2c1 (stereo not shown) [Ex. 1.141]
Query block: Sort these compounds on pIC50 so the largest reading comes first. Output spec: a listing of the labels in the requested order.
Result block: S, R, P, Q
